test: Primary qHTS for inhibitors of nuclear receptor binding SET domain protein 2 (NSD2) in an isogenic RCH-ACV NSD2 p.E1099K mutant (9B) (AID 1645876); conditions: RCH-ACV (leukaemia line) NSD2 E1099K (9B) viability, CellTiter-Glo, 72 h; series mostly up to 44.9 µM; further: nearly all actives have a fitted effect of over 70% in size
Records with an inconclusive call do not appear. The source made the active and inactive calls. The call rests on the fitted dose curve; in most records, active means well fitted inhibition curve with a large enough effect; inconclusive means small, poorly fitted or top-dose-only effect; inactive means flat fitted curve, though single readings scatter.
The reply should be one of these categories: YES for active, NO for inactive

Request: # outcome recorded in this test, key = CCOC(=O)C1(c2ccccc2)CCN(CCC(C#N)(c2ccccc2)c2ccccc2)CC1
Result: YES

Request: # outcome recorded in this test, key = c1ccc2c(c1)Nc1ccccc1S2
Result: NO

Request: # outcome recorded in this test, key = CCN(CC)CCN1C(=O)CN=C(c2ccccc2F)c2cc(Cl)ccc21
Result: NO

Request: # outcome recorded in this test, key = CO[C@]12CC[C@@]3(C[C@@H]1[C@](C)(O)C(C)(C)C)[C@@H]1Cc4ccc(O)c5c4[C@@]3(CCN1CC1CC1)[C@H]2O5
Result: YES

Request: # outcome recorded in this test, key = FC(F)(F)c1cccc(C2=CCN(CCc3ccc4ccccc4c3)CC2)c1
Result: NO
